Listed here are molecules together with their documented pEC50.
Tested on: HCV replicon
Measurement Notes: HCV replicon assay in Huh-7 cells (luciferase)
Format: cell-based
Condition Set: Hepatitis C virus, 72 h; Huh-7 HCV replicon cells, 3 days incubation, luciferase readout; read-out: Wild-type EC50
pEC50: −log10 of the molar value.
Measured Quantity: pEC50

* CC1=CC[C@@H](C(=O)N(c2cc(C#CC(C)(C)C)sc2C(=O)O)C(C)C)CC1 [Example 5] | 8.00
* CC1=CC[C@H](C(=O)N(c2cc(C#CC(C)(C)C)sc2C(=O)O)C(C)C)[C@@H](C)C1 [Example 3] | 8.30
* CC1=CC[C@@H](C(=O)N(c2cc(C#CC(C)(C)C)sc2C(=O)O)C(C)C)[C@H](C)C1 (single isomer, unassigned) [Example 2] | 8.30
* CC1=CC[C@H](C(=O)N(c2cc(C#CC(C)(C)C)sc2C(=O)O)C(C)C)CC1 [Example 6] | 8.15
* CC(C)(C)C#Cc1cc(N(C(=O)[C@H]2CC[C@H](C)CC2)[C@H]2CC[C@H](O)CC2)c(C(=O)O)s1 [Comparative example 2, reference compound] | 8.22

###

Target Desc: wild-type NS5B (amino acids 1-570; GT-1b) (Hepatitis C virus genotype 1b)
Construct: 21 residue C-terminal truncated forms of the NS5b protein (amino acids 1-570); GT-1b; made in house
Measurement Notes: Surface Plasmon Resonance binding affinity to wild-type NS5B
Set-up: species or system HCV GT-1b
Measured Quantity: Kd

* CC1=CC[C@@H](C(=O)N(c2cc(C#CC(C)(C)C)sc2C(=O)O)C(C)C)CC1 [Example 5] | 1.5 nM

###

Listed here are molecules together with their documented Fold difference.
Test system: NS5B mutant M423T (amino acids 1-570; GT-1b)
Measurement Notes: Surface Plasmon Resonance binding affinity to M423T NS5B
Design: species or system HCV GT-1b
Condition Set: M423T KD versus wild-type KD
Measured Quantity: Fold difference

- CC1=CC[C@@H](C(=O)N(c2cc(C#CC(C)(C)C)sc2C(=O)O)C(C)C)CC1 [Example 5]: 9.0
- CC(C)N(c1cc(C#CC(C)(C)C)sc1C(=O)O)C(=O)[C@H]1CC[C@H](C)CC1 [Comparative example 1, reference compound]: 16
- CC1=CC[C@H](C(=O)N(c2cc(C#CC(C)(C)C)sc2C(=O)O)C(C)C)CC1 [Example 6]: 11
- CC1=CC[C@H](C(=O)N(c2cc(C#CC(C)(C)C)sc2C(=O)O)C(C)C)[C@H](C)C1 (single isomer, unassigned) [Example 1]: 5.6
- CC(C)N(C(=O)[C@@H]1CC[C@@H](C)C[C@H]1C)c1cc(C#CC(C)(C)C)sc1C(=O)O [Comparative example 4, reference compound]: 40
- CC1=CC[C@@H](C(=O)N(c2cc(C#CC(C)(C)C)sc2C(=O)O)C(C)C)[C@H](C)C1 (single isomer, unassigned) [Example 2]: 9.5

###

System: HCV replicon
Measurement Notes: HCV replicon assay in Huh-7 cells (luciferase)
Type: cell-based
Condition Set: Hepatitis C virus, 72 h; Huh-7 HCV replicon cells, 3 days incubation, luciferase readout; read-out: Wild-type EC50
pEC50: −log10 of the molar value.
Measured Quantity: pEC50

* CC(C)N(C(=O)[C@H]1CC[C@H](C)C[C@@H]1C)c1cc(C#CC(C)(C)C)sc1C(=O)O [Comparative example 3, reference compound] | 7.30
* CC(C)N(C(=O)[C@@H]1CC[C@@H](C)C[C@H]1C)c1cc(C#CC(C)(C)C)sc1C(=O)O [Comparative example 4, reference compound] | 8.10
* CC1=CC[C@@H](C(=O)N(c2cc(C#CC(C)(C)C)sc2C(=O)O)C(C)C)[C@@H](C)C1 | 7.42
* CC1=CC[C@H](C(=O)N(c2cc(C#CC(C)(C)C)sc2C(=O)O)C(C)C)[C@H](C)C1 (single isomer, unassigned) | 8.10
* CC(C)N(c1cc(C#CC(C)(C)C)sc1C(=O)O)C(=O)[C@H]1CC[C@H](C)CC1 [Comparative example 1, reference compound] | 7.59
